B1: 2K2A (parent)
chain: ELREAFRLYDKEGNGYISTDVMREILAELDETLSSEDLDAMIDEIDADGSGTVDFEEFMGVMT

Variants of: B1
Assay: folding stability dG (cDNA display proteolysis); higher = more stable
Settings: PBS, room temperature
Label f if folding stability dG falls below 0.8 kcal/mol; label t in every other case.

> print(dat)
   change  assignedcategory
1     E1I                 t
2     L2P                 f
3    L33Q                 f
4    Y16C                 f
5    G13T                 f
6    N14T                 t
7    V61T                 t
8    E12F                 t
9    I25L                 t
